targetSystem: Cytochrome P450 3A4 (Homo sapiens)
protocolNotes: Cytochrome panel assay with activity outcomes
experimentalSetup: recombinant CYP, pro-luciferin dealkylation, luminescence, p450-cyp3a4; series mostly up to 57.1 µM
The campaign covered roughly 16,000 compounds. About 5,100 (32%) were called active. Not shown: some 25% with an inconclusive outcome. Calls come from the whole dose curve; as a rule, active = well fitted curve in the direction sought with a large enough effect; inconclusive = small, poorly fitted or top-dose-only effect, or effect the other way; inactive = no such curve, though single readings can be large or run the other way. The list shows a part of the results.
// one of active, inactive, no free text

**Query** Assay result, entry Cc1nn(-c2ccc(F)cc2)c(C)c1NS(=O)(=O)c1ccc2ccccc2c1 — outcome?
**Result** active

**Query** Call for entry O=C1CC(=O)C(n2cncn2)C(c2cccc(Cl)c2)C1 (stereo not given) :
**Result** active

**Query** What was the test verdict on O=C1N=C2SCCN2/C1=C\c1c(Cl)cccc1Cl ?
**Result** active

**Query** Per the records of this test, what outcome belongs to CCc1c2c(nc3ccc(OC)cc13)COC2 ?
**Result** active

**Query** For COC(=O)N1CC(=O)N(OC)C1c1ccc(Cl)cc1Cl (stereo not given) , which call appears in the assay record?
**Result** inactive

**Query** Recorded test call requested for C[C@H]1[C@@H](O)[C@@H](C)\C=C/C=C\C=C/C=C\C=C/C=C\C=C/[C@@H](O[C@H]2O[C@@H](C)[C@@H](O)[C@@H](N)[C@@H]2O)C[C@@H]2O[C@](O)(C[C@@H](O)C[C@@H](O)[C@@H](O)CC[C@@H](O)C[C@@H](O)CC(=O)O[C@H]1C)C[C@@H](O)[C@H]2C(=O)O (stereo in doubt)
**Result** inactive

**Query** Outcome logged for C=CCc1ccccc1OC[C@H](O)CNC(C)C in this assay:
**Result** inactive

**Query** What did the test return for Cc1cc(C(=O)CSc2nnc(-c3ccccc3)o2)c(C)n1CC1COc2ccccc2O1 (stereo not given) ?
**Result** active

**Query** What classification did COc1cccc2cc(NC(=O)C3CCCCC3)c(=O)oc12 end up with in this test?
**Result** inactive

###

targetSystem: Cytochrome P450 3A4 (Homo sapiens)
protocolNotes: Cytochrome panel assay with activity outcomes
experimentalSetup: recombinant CYP, pro-luciferin dealkylation, luminescence, p450-cyp3a4; series mostly up to 57.1 µM
The campaign covered roughly 16,000 compounds. About 5,100 (32%) were called active. Not shown: some 25% with an inconclusive outcome. This is one part of the list.
measurementKind: AC50

Examples with answers:
CN(C)c1ccc(-c2cc(Nc3ccc(F)cc3)ncn2)cc1 ... 10 µM (active)
Cc1cc2nc(CCN(C(=S)NCC(C)C)C3CCCC3)[nH]c2cc1C ... 17.8 µM (active)
COc1ccc(NC(=O)N2CC3(CCN(C(=O)c4ccco4)CC3)C2)cc1 ... inactive
CN(CC[C@@H](Oc1ccc(-c2ccccc2)cc1)c1ccc(F)cc1)CC(=O)O ... inactive
Cc1cc(OCCNCCO)cc(C)c1Cl ... inactive

**Query** State its AC50: CO[C@@H]1/C=C\O[C@@]2(C)Oc3c(C)c(O)c4c(c3C2=O)C(=N[C@H]2CC[C@H](O)O[C@@H]2C)C=C(NC(=O)/C(C)=C\C(=O)[C@@H]2C[C@@H]2[C@@H](O)[C@H](C)[C@@H](O)[C@H](C)[C@H](OC(C)=O)[C@@H]1C)C4=O
**Result** 1.26 µM (active)

**Query** State, in one line, measured AC50 of COC(=O)N1CCC2(CC1)CN(C(=O)Nc1ccc(OC)cc1)C2
**Result** inactive

**Query** Name the recorded AC50 of the molecule listed here: Cc1cc(OC(=O)c2ccccc2Cl)cc(=O)n1C
**Result** inactive

**Query** For the molecule O=C(O)CSc1sc(=S)sc1SCC(=O)O , report AC50.
**Result** 11.2 µM (active)

All figures here come from PubChem BioAssay AID1851.
